Test system: E. coli wild-type GFP strain growth, fluorescence, 24 h
Assay: wild-type E. coli growth inhibition versus H69 humanized strain – H69 mutant RFP, wild-type GFP, cherry-pick, dose response (AID 977621);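 also: wild-type GFP and H69 mutant RFP strains grown together 50/50 in each well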
Records with an inconclusive call do not appear. Calls of active or inactive are those of the source.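 The calls were made as follows: active = Wild-type ribosome reporter drop at least double the humanized mutant ribosome reporter drop, growth loss under a set limit; inconclusive = no clear call, values can overlap the other calls; inactive = the rest.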
measured property: AC50

• Cc1nc(C)c(-c2ccn(S(=O)(=O)c3ccc(Cl)cc3)n2)o1 = > 100 µM (inactive)
• CCCN(CC1CC1)C(=O)CSc1ncnc2sccc12 = > 100 µM (inactive)
• Cc1ccc(SCC(=O)Nc2ccc(S(=O)(=O)Nc3nccs3)cc2)cc1 = > 100 µM (inactive)
• C[C@@H]1CN([C@@H](C)CO)C(=O)c2cccc(NC(=O)Nc3ccccc3)c2O[C@@H]1CN(C)S(=O)(=O)c1ccc(Cl)cc1 = > 100 µM (inactive)
• Cc1c(Cc2ccccc2)sc(NC(=O)C(C)(C)C)c1C(N)=O = > 100 µM (inactive)
• Fc1ccc(-c2nnc(-c3ccc4ccccc4c3)o2)cc1 = > 100 µM (inactive)
• COc1cc(NC(=O)C(c2ccccc2)c2ccccc2)c(C(=O)O)cc1OC = > 100 µM (inactive)
• Cc1cc(Br)ccc1SCC(=O)OCC(=O)NCc1ccco1 = > 100 µM (inactive)
• COc1ccc(OC)c(S(=O)(=O)Nc2cccc3ccccc23)c1 = > 100 µM (inactive)
• O=C(NCc1nnc(SCc2ccccc2)n1-c1ccccc1)C12CC3CC(CC(C3)C1)C2 = > 100 µM (inactive)
• CN(C)CCCNc1ccc(-c2cc(Nc3cccc(Cl)c3)ncn2)cn1 = > 100 µM (inactive)
• COc1cc2[nH]c(=S)nc(NCCc3ccc(C)cc3)c2cc1OC = > 100 µM (inactive)
• C[C@@H]1NS(=O)(=O)c2c(F)cccc2O[C@@H]1c1ccccc1 = > 100 µM (inactive)
• N#Cc1nc(Cc2ccccc2)oc1N1CCCC1 = > 100 µM (inactive)
• COc1ccc(C2=Nc3ccccc3NC(=O)C2N(C(=O)c2ccnc3ccccc23)c2ccccc2)cc1 (configuration not stated) = > 100 µM (inactive)
• Nc1ccc2nc(-c3ccc(Cl)cc3)[nH]c2c1 = > 100 µM (inactive)
• Cc1nnn(C23CC4CC(CC(CC(=O)Nc5ccc(C)c(C)c5)(C4)C2)C3)n1 = > 100 µM (inactive)
• Cc1cc(NC(=O)CN2CCN(c3cccc(Cl)c3)CC2)no1 = > 100 µM (inactive)
• COc1ccc(CNc2ncnc3cc(OC)c(OC)cc23)cc1OC = > 100 µM (inactive)
• COC(=O)C[C@H]1C[C@@H]2c3cc(NC(=O)Nc4ccc(C(F)(F)F)cc4)ccc3O[C@@H]2[C@H](CO)O1 = > 100 µM (inactive)
• CN(c1ccccc1)c1ccc([N+](=O)[O-])c2nonc12 = > 100 µM (inactive)
• CCN(C(=O)COC(=O)c1ccc([N+](=O)[O-])o1)c1cccc2ccccc12 = > 100 µM (inactive)
